system: NCI-H292 lung cancer cells; assay: FDA drug screening, complete media vs cholesterol-free media with simvastatin (TABLE 2); format: cell-based, human; conditions: NCI-H292 cells, cholesterol-free media with simvastatin 0.04 μM; FDA drug library screen (TABLE 2)
Counter-ions that a name gives are not always drawn.
Hi, to clarify the labels: Met covers Cholesterol-free media + simvastatin (0.04 μM) from 1 upward, Not met covers anything below 1.

>>> group("CC1=C(C(=O)Nc2ccccc2)SCCO1")
"Not met"
>>> group("CC(C)(C)C(O)/C=C/c1ccc2c(c1)OCO2 (stereo not drawn)")
"Not met"
>>> group("CN(C)[C@@H]1C(O)=C(C(N)=O)C(=O)[C@@]2(O)C(O)=C3C(=O)c4c(O)cccc4[C@@](C)(O)[C@H]3C[C@@H]12 [Tetracycline (hydrochloride)]")
"Not met"
>>> group("O=S(=O)(O)c1ccc2[nH]c(-c3ccccc3)nc2c1")
"Not met"
>>> group("Cc1nnc(NS(=O)(=O)c2ccc(N)cc2)s1")
"Met"
>>> group("COC(=O)c1ccc2c(c1)NC(=O)/C2=C(\\Nc1ccc(N(C)C(=O)CN2CCN(C)CC2)cc1)c1ccccc1 [Nintedanib]")
"Not met"
>>> group("C[C@@H]1C[C@H]2[C@@H]3CCC4=CC(=O)C=C[C@]4(C)[C@@]3(F)[C@@H](O)C[C@]2(C)[C@H]1C(=O)CO")
"Not met"
>>> group("Nc1nc2[nH]cc(CCc3ccc(C(=O)N[C@@H](CCC(=O)O)C(=O)O)cc3)c2c(=O)[nH]1")
"Not met"
>>> group("CC(=O)Nc1nnc(S(N)(=O)=O)s1 [Acetazolamide]")
"Not met"
>>> group("O=NN(CCCl)C(=O)NC1CCCCC1")
"Not met"
>>> group("Cn1c(=O)c2[nH]cnc2n(C)c1=O")
"Not met"
>>> group("NC(=O)CC[C@H](N)C(=O)O")
"Not met"
>>> group("CCOC(=O)[C@H](CCc1ccccc1)N[C@H]1CS[C@H](c2cccs2)CN(CC(=O)O)C1=O [Temocapril (hydrochloride)]")
"Met"
>>> group("COS(=O)(=O)[O-].C[n+]1c2ccccc2nc2ccccc21 [Phenazine (methylsulfate)]")
"Not met"
>>> group("O=C1NCN(c2ccccc2)C12CCN(CCCC(c1ccc(F)cc1)c1ccc(F)cc1)CC2")
"Met"
>>> group("CN1CCc2c(c3ccccc3n2Cc2ccccc2)C1 [Mebhydrolin (napadisylate)]")
"Not met"
>>> group("Cc1cc(C(=O)NNCc2ccccc2)no1")
"Met"

---

system: NCI-H292 lung cancer cells; experiment: FDA drug screening, complete media vs cholesterol-free media with simvastatin (TABLE 2); format: cell-based, human; settings: complete media vs cholesterol-free media + simvastatin (0.04 μM); >0 enhanced anti-cancer activity, about 0 neutral, <0 antagonist
OUTCOME_MEASURE: Difference

>>> numeric_value("CC1=C(C(=O)OCCN(Cc2ccccc2)c2ccccc2)C(c2cccc([N+](=O)[O-])c2)C(P2(=O)OCC(C)(C)CO2)=C(C)N1.CCO.Cl (stereo not shown)")
"−0.10"
>>> numeric_value("C[C@H](O)[C@H](O)[C@H]1CNc2nc(N)[nH]c(=O)c2N1 [Tetrahydrobiopterin]")
"−0.36"
>>> numeric_value("O=C(O)COC(=O)Cc1ccccc1Nc1c(Cl)cccc1Cl [Aceclofenac]")
"−0.13"
>>> numeric_value("CNC[C@H](O)[C@@H](O)[C@H](O)[C@H](O)CO.Nc1nc(-n2cc(C(=O)O)c(=O)c3cc(F)c(N4CC(O)C4)c(Cl)c32)c(F)cc1F [Delafloxacin (meglumine)]")
"−0.16"

Numbers sourced from patent US20250144067A1.
